I'd be grateful if you could share measured pKd for these entries.
Biological target: T1, GFP-9S library array, motif 4 ND N98T;D124V (synthetic construct, N98T;D124V)
T1 chain: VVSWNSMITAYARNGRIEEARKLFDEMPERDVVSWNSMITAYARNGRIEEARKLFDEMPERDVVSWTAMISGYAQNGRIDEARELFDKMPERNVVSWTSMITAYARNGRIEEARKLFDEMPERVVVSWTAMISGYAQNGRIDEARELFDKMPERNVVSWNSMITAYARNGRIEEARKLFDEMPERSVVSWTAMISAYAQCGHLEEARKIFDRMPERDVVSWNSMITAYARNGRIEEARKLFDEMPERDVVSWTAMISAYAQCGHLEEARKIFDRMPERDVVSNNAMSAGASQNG
Assay: high-throughput RNA pulldown from lysate on Ni-NTA beads; HRP: 50 mM Tris pH 8, 150 mM NaCl, 1 mM beta-mercaptoethanol, 50 ug/ml BSA, 3 ug/ml yeast RNA, 0.5% heparin; ITC and FP: Tris pH 8, 200 mM KCl, 5% glycerol; MST: 50 mM Tris pH 8, 200 mM NaCl, 1 mM DTT, BSA, heparin, 0.05% Tween 20
Conditions: tags: N-terminal His-eGFP; label: 5' IRDye 800CW
One number for each entry, as −log10 of the molar value.

Exercise: Query (binder): AUUAUACGUGA (ssRNA) [IR-rpoA-U] ; field requested: pKd
Key: 6.85

New cases:
Exercise: Query (binder): AUUAAACGUGA (ssRNA) [IR-rpoA-A] ; field requested: pKd
Key: 7.51

Cited source for all entries: paper PMC8809517
